Where these numbers come from: ChEMBL document CHEMBL5053545

- Tested on: Escherichia coli
- PROCEDURE TEXT: Binding affinity to Escherichia coli sliding clamp assessed as gibbs free energy change by ITC analysis
*1 amine or outer side, *2 acyl side, *3 side chain or, on linkers, in order; H or OH if unused. Where a SMILES comes first, the peptide text is derived from it. [ ]: non-standard residue; d: D form. The star is where a group is joined. Acryloyl(3-(3-pyridyl),E) = O=C(/C=C/c1cccnc1)*; Phe(3,4-Cl2) = N[C@@H](Cc1ccc(Cl)c(Cl)c1)C(=O)O; NH(4-MeO-phenyl) = COc1ccc(N*)cc1; Cha = N[C@@H](CC1CCCCC1)C(=O)O; NMeD = CN[C@@H](CC(=O)O)C(=O)O; NMeL = CN[C@@H](CC(C)C)C(=O)O; CO = O=C([*:1])[*:2]
deltaG: recorded values
Quote the value and follow it with the unit of measurement.

Solved entries (count: 3):
CC(=O)N[C@@H](CCCNC(=N)N)C(=O)N[C@@H](CCC(N)=O)C(=O)N[C@@H](CC1CCCCC1)C(=O)N[C@@H](CC(=O)O)C(=O)N[C@@H](CC(C)C)C(=O)N[C@@H](Cc1ccccc1)C(=O)O (Ac-RQ[Cha]DLF-OH) :: -8.6 kcal/mol
CC(=O)N[C@@H](CCC(N)=O)C(=O)N[C@@H](CC1CCCCC1)C(=O)N[C@@H](CC(=O)O)C(=O)N(C)[C@@H](CC(C)C)C(=O)N[C@@H](Cc1ccccc1)C(=O)O (Ac-Q[Cha]D[NMeL]F-OH) :: -5.2 kcal/mol
CC(C)C[C@H](NC(=O)[C@H](CC(=O)O)NC(=O)[C@H](CC1CCCCC1)NC(=O)[C@H](CCC(N)=O)NC(=O)/C=C/c1cccnc1)C(=O)N[C@@H](Cc1ccccc1)C(=O)O ({Acryloyl(3-(3-pyridyl),E)}-Q[Cha]DLF-OH) :: -9.3 kcal/mol

In the following, a different molecule is considered.
// query Return reported deltaG; argument: COc1ccc(NC(=O)N[C@@H](CCC(N)=O)C(=O)N[C@@H](CC2CCCCC2)C(=O)N(C)[C@@H](CC(=O)O)C(=O)N[C@@H](CC(C)C)C(=O)N[C@@H](Cc2ccc(Cl)c(Cl)c2)C(=O)O)cc1 ({NH(4-MeO-phenyl)-CO}-Q[Cha][NMeD]L[Phe(3,4-Cl2)]-OH)
// result -9 kcal/mol
